assay: yeast display, Sf9 membrane polyspecificity reagent, FACS + sequencing; frameworks hold sequencing errors

{"chain": "QVQLVESGGGLVQAGSSLRLSCAASGSTFLYYAMGWYRQAPGKEREMVAAITSSGGRTYYADSVKGRFTNSRDNAKNTDYLQMNSLKPEDTAVYYCARGWPRREQSEYDYWGQGTQVTVSS", "polyreactivity (PSR sort gate)": "high polyreactivity"}
{"chain": "QVQLVESGGGLVQAGGSLRLSCAGSGRTVANNAMGWYRQAPGKERELVAAISNGDSPYADSVKGRFTISRDNAKNTVYLQLNSLKPEDTAVYYCATRTQEDYTGDYWGQGTQVTVSS", "polyreactivity (PSR sort gate)": "low polyreactivity"}
{"chain": "QVQLKESGGCLVPSRGSLRQSCAASGSISGPHVKGWYRQAPGKEREFVAAINVGANTYYADNVKGRFTISRDNANNPGYLQMNSLKPEDTAVYFCAAVYFGDIGHEYWGQGTQVTVSC", "polyreactivity (PSR sort gate)": "low polyreactivity"}
{"chain": "PVQLVESGGGLVQAGGSLRLSFAASGRTFWVYAMGWYRQAPGKERELVAAINRRGGGTYYADSVKGRFTISRDNAKNTVYLQMNSLKPEDTPVYYCAAVTRNQGSYRYYYWGQGTQVTVSS", "polyreactivity (PSR sort gate)": "high polyreactivity"}
{"chain": "QVQLVESGGGLVQAGGSLRLSFAASGFTFKYYAMGWYRPAPGKERELVAAIRSGGSTYYADSVKGRFTISRDNAKNTVYLQMNSLKPEDTAVYYCNAPAFYRYGLNYWGQGTQVTVSS", "polyreactivity (PSR sort gate)": "high polyreactivity"}
{"chain": "QVHLVESGVGLVQAGGSLRLSCASSGRIFYDNSMGWYRQAPGKERELVAAISYRGGSTYYADSVKGRFTISRDNAKNTVYLLMNSLKPEDTAVYYCARAGFTTCPDHDSWGQGTQVTVSS", "polyreactivity (PSR sort gate)": "high polyreactivity"}
{"chain": "QVQLVESGGGIVQAGGSLRLSCAASGLIFYTYAMGWYRQAPGKERELVATISWDVDSTNYADSVKGRFTISRDNAKNTVYLQMNSLKPEDTAGYYCAVDSTFDSYWYWVDYYEYGYWGQGTQVTVSS", "polyreactivity (PSR sort gate)": "high polyreactivity"}
{"chain": "QVQLVESGGGLVQAGGSLRLSCAASGIISSTNAMGWYRQEPGKERELVAAISGRGSGTYYADSVKGRFTISRDNAKNTVYLQMNRLKPEDTAVYYCAALSNVFQWWFKTNKSRYDYWGQGTQVTVSS", "polyreactivity (PSR sort gate)": "high polyreactivity"}
{"chain": "QVQLVESGGGLVQAGGSLRLSCAASGSIFPVYAMGWYRQAPGKEREFVARIRFSGGRTYYADSVKGRFTISRDNAKNTVYLQMNSLKPEDTAVYYCAKAQYRGRYGYWGQGTQVTVSS", "polyreactivity (PSR sort gate)": "high polyreactivity"}
{"chain": "QVQLVDSGGGLVQAGVSLRLSCAASGFIFYRYAMVWYRQAPGKERELVAAINWSGGGTYYADSVKGRFTISRDNAKNTVYLLMNSLKPEDTAVYYCAAVRSFRGSYWYEYWGQGSQVTVSS", "polyreactivity (PSR sort gate)": "high polyreactivity"}
{"chain": "QVQLVESGGGLVQAGGRLRLSCAASGGTFSKNAIGWYRQAPGKEREFVAAISSTGGDTTYYADSVKGRFTISRDNAKNTVYLQMNSVKPEDTAFYYCNSDYIFWPWYDYWGQGTQVTVSS", "polyreactivity (PSR sort gate)": "low polyreactivity"}
